# emission maximum per record follows
assay: solvent given as SMILES; conditions: in ClC(Cl)Cl
Give your result in nm as a bare value.

CCCCCCN1C(=O)c2cccc3c(-c4scc5c4OCCO5)ccc(c23)C1=O :: 484

Prompt: # lookup: emission maximum of "CCOC(=O)c1sc2nc(-c3ccccc3)c(C)c(C#N)c2c1N"
Response: 550

###

Listing: emission maximum of selected compounds
assay: solvent given as SMILES; conditions: in CC#N
Your answer is read as nm, so omit the unit and give the number.

Example entries and their recorded answers appear below.
Cc1cc(C)c(B(c2c(C)cc(C)cc2C)c2cc3ccc4ccccc4c3c3c2ccc2ccccc23)c(C)c1 :: 449
CN(C)c1ccc2c3c(ccc2c1)C(=O)CCC3 :: 448
Cn1c(=O)cc(C(=O)c2ccccc2)c2sc(-c3ccc(C(F)(F)F)cc3)cc21 :: 517

Turning to the following compound.
Prompt: # get_value(readout='emission maximum', item= "c1cc2c3ccc[n+]4cccc(c5ccc[n+](c1)c25)c34" )
Response: 442

Data origin, for the record: the Deep4Chem optical property database
